Cited source for all entries: patent US20110269811A1

Structures can show the parent of a compound that is named as a salt.
Metric name: melting point

Solved entries (count: 3):
- Cl.NC/C(=C\F)Cc1cccc(F)c1: 120.5 to 121.5 °C
- NC/C(=C/F)CCc1cc(F)cc(C(F)(F)F)c1.O=C(O)C(F)(F)F: 58 to 59 °C
- COc1cccc(CC/C(=C/Cl)CN)c1 (as salt: hydrochloride): 139 to 140 °C

Now turn to the next compound.
Query: Request the reported melting point associated with `Cl.NC/C(F)=C\Cc1cccc(OC(F)(F)F)c1`
Reply: 174 to 175 °C

###

For each entry below, report its IC50 value.
Biological target: human MAO-B (Homo sapiens)
Construct: purchased BD Biosciences (MA, USA)
Sequence (P27338 whole entry): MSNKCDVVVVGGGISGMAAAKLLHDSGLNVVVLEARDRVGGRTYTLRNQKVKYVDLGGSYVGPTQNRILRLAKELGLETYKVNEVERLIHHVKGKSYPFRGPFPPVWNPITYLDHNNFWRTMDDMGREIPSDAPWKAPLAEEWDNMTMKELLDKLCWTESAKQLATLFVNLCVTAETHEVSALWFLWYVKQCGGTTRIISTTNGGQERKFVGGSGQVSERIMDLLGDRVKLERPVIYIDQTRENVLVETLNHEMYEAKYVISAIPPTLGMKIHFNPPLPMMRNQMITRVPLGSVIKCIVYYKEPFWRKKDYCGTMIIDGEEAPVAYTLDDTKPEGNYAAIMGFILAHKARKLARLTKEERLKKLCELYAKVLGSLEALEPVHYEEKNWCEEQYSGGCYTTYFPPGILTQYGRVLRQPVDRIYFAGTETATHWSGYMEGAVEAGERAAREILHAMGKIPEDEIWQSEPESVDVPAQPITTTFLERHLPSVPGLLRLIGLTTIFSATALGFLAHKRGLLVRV
Assay: MAO-B activity, colorimetric method, benzylamine substrate
Format: biochemical
Details: recombinant human MAO-B
Protocol: The specificities of the different SSAO inhibitors was tested by determining their abilities to inhibit MAO-A and MAO-B activities in vitro. Recombinant human MAO-A and human MAO-B enzymes were obtained from BD Biosciences (MA, USA). MAO activity was measured using the colorimetric method essentially as described (Holt, A. et al. (1997) Anal. Biochem. 244: 384). A pre-determined amount of inhibitor diluted in 0.2M potassium phosphate buffer, pH 7.6, was added to each well, if required. […]
Answers are plain numbers, in µM.

Solved entries (count: 3):
* CCOc1ccc(CC/C(=C\Cl)CN)cc1.Cl [Compound I-45-Z, hydrochloride] | 1.2
* COc1cccc(C/C(=C/F)CN)c1.Cl [Compound I-5-Z, hydrochloride] | 1.8
* COc1cccc(C/C=C(/F)CN)c1.Cl [II-8-E, hydrochloride] | 1100

Now turn to the next compound.
Query: Request the reported IC50 associated with `NC/C(=C\F)CCc1ccc(F)cc1`
Reply: 0.27
